Below: a set of entries, each annotated with reported apparent KD of MS2 coat protein.
System: MS2 coat protein
ASSAY_SUMMARY: apparent KD of MS2 coat protein; higher = weaker reporter binding
MEASUREMENT_CONDITIONS: Eterna round: R107; input ligand: theophylline 20 uM
Return type: number; implicit unit nM.

Here are 10 sequences together with their reported answers.
GGGUACAUCGCGGCCGCCACUCAUGUAAAUGCAUGAGGAACACCCAUGCCGAUGGAGACAUCGGAGAGGACCGGGUGAUGUACCG = 157
GACAUGAGGAUCACCCAUGUACCGCGAGAAGGAGCGCGGAUAAACGCAGGUAGGUCGCUCGUGGGCUCACAUUCAAUCGUAAGCU [Azaesisma] = 116
CAUAUUGUAACUGAUACCAGUGUACUGACAUGAGGAUCACCCAUGUUGGGUUUUGUUGUACACCCUUGGCAGCAGAAUCAAUAUG [AstrosExyTheB#4] = 74.2
GCCCUUGGCAGCGAUACCAGCCAAAAUUAAAAUAAACCUCUACAUGAGGAUCACCCAUGUGGCCCUUGGCAGCGAUACCAGCAAA [#ReversedDoubbleAptamer 1] = 49.7
GAGCGCAGUUUACAACAUACUAACACAGAUACCAGAAAUUUUAUGUUCCCUUGGCAGCUGACAACAUGAGGAUCACCCAUGUGCU [theeternabot_exclusion_MS2_Theo_A_27] = 21.2
UCGCAUUGCUCAGAUACCAGACAUGAGGAUCACCCAUGUACCAAGGUAACCGAAAGGCAUGUCCCUUGGCAGCUGAGCAAUGCGU [MAT - Exclusion Theophlline B - Mod of Eli - D14] = 21.1
AUCGUACCUGAUGAUACCAGCAAGUGAUCAUAACAUGAGGAUCACCCAUGUAAUCAGUGAUGCCCUUGGCAGCAUAGUCGAUACA [Same State - Theophylline B (Freestyle 5)] = 199
CGCCACUCGAGUGAUCCUCACGAGUGGCUACGAGGACCGGUACGGCCGCCACUCGAAUUAACAUGAGGAUCACCCAUGUACUCCA [Brourdmod10] = 173
GGGCGCGUGGACUGGCGUGCUCCGCUCCGUCGAGGACCGGUACGGCCGCCACUCGACAUGAGGAUCACCCAUGUGUGCGCUCGCG [#1 Exclusion - Tryptophan A Attempt #18 (HarryS)] = 194
UGGGCAUACAUGAGGAUCACCCAUGUAGAUACCAGCACUAGCCUGUGCCCUUGGCAGCUAACCGGGUCGAGAACUUAGUGCUCCU [Lexele] = 21.9

Give apparent KD of MS2 coat protein for the following sequence: GCGGACAUGAGGAUCACCCAUGUAAAUCCUCGAGGACCGGUACGGCCGCCACUCGAACGAGUGGCACGCGAGUGCGCACUCGCGU [aDa]
38.4

Report apparent KD of MS2 coat protein for GCAUUAUUAUUAGAUACCAGUGUCGCAGGCGACAUGAGGAUCACCCAUGUAAAGUUACUCCACCCUUGGCAGCUAGUUCGACUAC [theeternabot_sameState_MS2_Theo_B_21]
124

* * *

Test system: MS2 coat protein
ASSAY_SUMMARY: apparent KD of MS2 coat protein, switch ON state; designed switch direction (-1 OFF switch, 1 ON switch): 1; higher = weaker reporter binding
MEASUREMENT_CONDITIONS: FMN input: 0 or 200 uM; Eterna round: R93 (includes R88 designs)
Known apparent KD of MS2 coat protein of a selection of sequences
Give the number; nM is assumed, so skip it.

AAAUAACAUGAGGAUCACCCAUGUUGCAACGGUUGAGGAUAUGUGGGUGAAAAUAGCAUGGCAGAAGGCGAGUGUA [SameState1 Malc#27] = 58.1
CACCCGUGUAUGAAGGAUAUGUAGACCCUGACAUGAGGAUCACCCAUGUAACUGUGGGUCCCAUCGCAGAAGGUCGAGACACGGG [Ribitite] = 22.4

Proceeding to the next sequence to report its apparent KD of MS2 coat protein.
Provide apparent KD of MS2 coat protein value for the following sequence: AAAGACGUGGUGUAGGAUAUACUAAUAGUCACAUGAGGAUCACCCAUGUUCAUAUAUAUGAACGAGUAGAAGGACGACGAAAAAA [SameState2 Malc#2]
70.4

* * *

We begin with a simple list: items and their reported apparent KD of MS2 coat protein.
Tested on: MS2 coat protein
ASSAY_SUMMARY: apparent KD of MS2 coat protein; designed switch direction (-1 OFF switch, 1 ON switch): -1; higher = weaker reporter binding
MEASUREMENT_CONDITIONS: input ligand: none
Return type: number; implicit unit nM.

Would you please look over these solved cases?
GCACAGGCAGGAUAUACAUGAGGAUCACCCAUGUGACCCUUGAUGUACUCGCGUACACGUAGAAGGGCCUGUGC [Omei Ex3 Model Bachelor's Dilema v41] (Eterna round: R97, puzzle: Exclusion 3) = 407
ACCCUCCCGCAGGAUAUAAUAAAGUGGUACUUAUUAGAAGGGCGUACAUGAGGAUCACCCAUGUCGUGACGUGC [Eternabot (L1) Solution 5] (Eterna round: R97, puzzle: Exclusion 6) = 25.9
GGUCGUCAAGUCAGGAUAUCGUUUGGUCGGUGUAACGAGAAGGGACAUGAGGAUCACCCAUGUCGUCUCAUCAG [Ex4 #28] (Eterna round: R97, puzzle: Brourd's mod of Exclusion 4) = 20.4
ACUCCCAUCGUGAGGAUAUUGAAGCGGGAAGCCGGCAAGAAGGUACAUGAGGAUCACCCAUGUGUGAACAGGAC [Eternabot (L1) Solution 48] (Eterna round: R97, puzzle: Brourd's mod of Exclusion 4) = 14.9
AAUUAACAUGUAGGAUAUCUGCACGAUUAGUGCAGAGAAGGACAUGAGGAUCACCCAUGUAUAGCGACUUCGGUCGCAAUAAUU [ENG1/2-B1] (Eterna round: R96, puzzle: Exclusion NG 1) = 80.6

Supply measured apparent KD of MS2 coat protein of GGGCCCGGUGUGAGGAUAUUGGGCCCGAAAGGGCCCGAGAAGGCACAUGAGGAUCACCCAUGUAAGCCGGGCCC [-46.5, -44.5 kcal, A 23%, 5c-0] (Eterna round: R97, puzzle: Brourd's mod of Exclusion 4) in your reply.
14.9

Return the recorded apparent KD of MS2 coat protein value; entry: GAUCCUUUGACGGACGUCUCGAAACAUGAGGAUCACCCAUGUGAGGAUAUCUCCGAGAGGUCGGCAGAGAAGGCACAUGAACAA [MOD3 Eternabot solution 19 score 84.66] (Eterna round: R96, puzzle: Exclusion NG 3)
19.8

Identify the reported apparent KD of MS2 coat protein for the following entry. AUAUCAAGCAAGGAUAUGCAAAUGGUUAUUUAUGCAGAAGGUGCAACAUGAGGAUCACCCAUGUUUCUGGGUUU [JR_E6_Sub049] (Eterna round: R96, puzzle: Exclusion 6)
55.7

Read the entry GCAGCUAAUGCAGGAUAUCAGCACGUGUAGUGCUGAGAAGGGCACAUGAGGAUCACCCAUGUGAUCAAUUAAUAUUAAUGCUGC [ENG1/11-B3] (Eterna round: R96, puzzle: Exclusion NG 1) and write its reported apparent KD of MS2 coat protein.
20.5

* * *

Measured apparent KD of MS2 coat protein by item
System: MS2 coat protein
ASSAY_SUMMARY: apparent KD of MS2 coat protein; designed switch direction (-1 OFF switch, 1 ON switch): 1; higher = weaker reporter binding
MEASUREMENT_CONDITIONS: input ligand: microRNA oligo, concentration not stated
Your answer should be a plain number; it is taken to be in nM.

Before answering, review these 8 worked examples.
CCCAGGCAUGGAGGAUAUGGGAACAUGAGGAUCACCCAUGUUAACUCCGUAGGCGGCUUAAGGCACCAGAAGGCUACGGCUGGU [Eternabot solution 15] (Eterna round: R96, puzzle: Same State NG 2) = 67.8
AGCUAUUAAUCAGGAUAUGGUGACAUGAGGAUCACCCAUGUAUAGAUGAUUAAAUGUGGUCUAAACUAGAAGGGAUUGCUAACA [SameState NG2 #55] (Eterna round: R96, puzzle: Same State NG 2) = 247
GCGAGCGUACUUGCAACAUGAGGAUCACCCAUGUUAACUGGACAGGAUAUGGUACCGUUUCGGUACCAGAAGGGUUUAUCAUGU [JL SSNG3 3.66] (Eterna round: R96, puzzle: Same State NG 3) = 92.8
GUUACAUGAGGAUCACCCAUGUAUGUGUGGGAGUAAGUGUCUUAGGAUAUCUAUGAUUUAAUCUAAGAGAAGGAAGAUUGUUGU [JMF's solution 82] (Eterna round: R96, puzzle: Same State NG 3) = 76.8
UUUAUAUUCAGAGGAUAUUGAUGUUGUAUUUUACAAGAAGGCUGAUUGUUUUGUAAUGUUAUUAAACAUGAGGAUCACCCAUGU [JR_SSNG1_Sub013] (Eterna round: R96, puzzle: Same State NG 1) = 22.5
UAACAGUACAAUUUAGAUCUACAUGAGGAUCACCCAUGUACUGAGGAUAUCAGCUCGAAUAGAGCUGAGAAGGCAGAAGAACUA [SSNG3/11-A1] (Eterna round: R96, puzzle: Same State NG 3) = 127
GUGGUCAGACAUGAGGAUCACCCAUGUGGAAUAAAUAACGUACAGGAUAUUCAAUAUAGGAUAUAGAAGAAGGGUAGAUUGGUG (Eterna round: R96, puzzle: Same State NG 3) = 136
GGCGGAUCCACAUGAGGAUCACCCAUGUAGCGGAGACGCAAUGAGGAUAUCGAUGGGUUUCCCGUCGAGAAGGCAUAAACCGCC [JL SSNG3 3.93 mod 2] (Eterna round: R96, puzzle: Same State NG 3) = 14.9

Here is another sequence to look at.
Provide apparent KD of MS2 coat protein, system MS2 coat protein, entry UUAAUAAUGUAAGGAUAUACAUGAGGAUUUCUCGUAGAAGGUACAGGACAUGAGGAUCACCCAUGUAUCGCUCAGAAGAGCGUA [Mat - Same State NG 1 - JL mod - D24] (Eterna round: R96, puzzle: Same State NG 1)
715
